Form field: EC50 (one value per entry).
target_or_system: human F508del-CFTR (Homo sapiens, UniProt P13569, DEL508-508)
Sequence (P13569 with tags, fused parts or gaps DEL508-508): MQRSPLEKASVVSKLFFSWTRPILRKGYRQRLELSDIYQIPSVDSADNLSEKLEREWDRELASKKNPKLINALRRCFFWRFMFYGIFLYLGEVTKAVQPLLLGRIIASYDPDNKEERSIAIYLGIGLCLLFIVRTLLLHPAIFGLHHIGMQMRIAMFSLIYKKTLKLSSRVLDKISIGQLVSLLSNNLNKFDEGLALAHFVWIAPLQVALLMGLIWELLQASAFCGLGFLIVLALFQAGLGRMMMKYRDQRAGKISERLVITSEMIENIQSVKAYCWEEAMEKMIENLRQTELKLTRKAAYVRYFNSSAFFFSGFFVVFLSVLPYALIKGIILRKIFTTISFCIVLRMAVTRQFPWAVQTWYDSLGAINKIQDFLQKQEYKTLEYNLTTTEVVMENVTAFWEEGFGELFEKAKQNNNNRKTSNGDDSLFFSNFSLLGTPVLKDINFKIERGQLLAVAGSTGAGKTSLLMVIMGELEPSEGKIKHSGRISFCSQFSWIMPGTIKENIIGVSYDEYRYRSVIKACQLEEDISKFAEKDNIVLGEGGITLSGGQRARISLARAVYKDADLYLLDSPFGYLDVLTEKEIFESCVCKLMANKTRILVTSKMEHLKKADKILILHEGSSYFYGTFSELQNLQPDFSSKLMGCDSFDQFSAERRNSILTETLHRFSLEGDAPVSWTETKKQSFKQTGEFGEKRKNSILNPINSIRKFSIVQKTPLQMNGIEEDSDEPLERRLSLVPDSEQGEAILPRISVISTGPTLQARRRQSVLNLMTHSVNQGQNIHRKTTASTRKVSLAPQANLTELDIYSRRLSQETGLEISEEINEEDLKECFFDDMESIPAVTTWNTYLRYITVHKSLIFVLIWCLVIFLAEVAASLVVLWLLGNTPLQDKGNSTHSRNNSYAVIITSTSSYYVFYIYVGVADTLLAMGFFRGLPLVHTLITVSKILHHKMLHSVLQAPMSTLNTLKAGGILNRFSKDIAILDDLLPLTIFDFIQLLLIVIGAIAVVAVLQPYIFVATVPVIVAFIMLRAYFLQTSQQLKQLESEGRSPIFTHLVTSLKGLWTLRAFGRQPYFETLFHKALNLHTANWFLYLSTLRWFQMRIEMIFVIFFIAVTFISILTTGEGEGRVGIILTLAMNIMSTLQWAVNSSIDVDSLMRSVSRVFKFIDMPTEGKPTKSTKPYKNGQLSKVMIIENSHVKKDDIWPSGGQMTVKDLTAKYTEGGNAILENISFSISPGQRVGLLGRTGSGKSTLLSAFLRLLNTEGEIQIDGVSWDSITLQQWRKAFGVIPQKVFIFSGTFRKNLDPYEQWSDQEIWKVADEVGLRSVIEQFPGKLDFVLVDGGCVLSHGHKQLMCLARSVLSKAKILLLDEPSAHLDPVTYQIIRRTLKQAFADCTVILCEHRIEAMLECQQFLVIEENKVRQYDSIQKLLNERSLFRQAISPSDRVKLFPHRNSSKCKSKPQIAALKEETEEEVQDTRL
protocol_text: F508del-CFTR cell surface expression (corrector activity), DiscoveRx ß-galactosidase complementation chemiluminescence assay in recombinant U2OS cell line
test_conditions: EC50, F508del-CFTR cell surface expression, U2OS cell line, 16h compound incubation; geomean values

compound | value_units | EC50
COc1cccc(-c2noc(CCNC(=O)[C@@H]3CC(=O)N(C)[C@@H](CC(C)C)C(=O)N4CCOC[C@@H]4C(=O)N[C@H](Cc4ccccc4)COc4cnc5ccccc5c4C(=O)N3)n2)c1 | nM | 1000
COc1cccc(CCNC(=O)[C@@H]2CC(=O)N(C)[C@@H](CC(C)C)C(=O)N(CCC3CCCCC3)CC(=O)N[C@H](Cc3ccccc3)COc3cc(OC)cc(OC)c3C(=O)N2)c1 | nM | 147
CC(C)C[C@H]1C(=O)N(C[C@@H]2CCCCO2)CC(=O)N[C@H](Cc2ccccc2)COc2ccc3ccccc3c2C(=O)N[C@H](C(=O)NCCc2ccc3c(c2)OCO3)CC(=O)N1C (racemic) | nM | 377
COc1cccc2c1C(=O)N[C@H](C(=O)NCCc1ccc3c(c1)OCO3)CC(=O)N(C)[C@@H](CC1CCCCC1)C(=O)N(C[C@@H]1CCCCO1)CC(=O)N[C@H](Cc1ccccc1)CO2 | nM | 456
COc1cccc(C(F)(F)CNC(=O)[C@@H]2CC(=O)N(C)[C@@H](CC(C)C)C(=O)N(C)C3(CC3)C(=O)N[C@H](Cc3ccccc3)COc3cnc4ccccc4c3C(=O)N2)c1 | nM | 229

---

target_or_system: human F508del-CFTR (Homo sapiens, UniProt P13569, DEL508-508)
protocol_text: F508del-CFTR cell surface expression (corrector activity), DiscoveRx ß-galactosidase complementation chemiluminescence assay in recombinant U2OS cell line;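 also: U2OS cells co-expressing ProLink-tagged F508del-CFTR and a membrane-anchored enzyme acceptor, where more surface CFTR restores β-galactosidase activity measured by chemiluminescence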
test_conditions: U2OS, in relation to the Emax of the corrector lumacaftor (=100%); U2OS cell line, 16h compound incubation; arithmetic mean values
assay_endpoint: Emax (%)

molecule | assay_endpoint | measured_value
CN1C(=O)C[C@@H](C(=O)NCCc2ccc3c(c2)OCO3)NC(=O)c2c(ccc3ccccc23)OC[C@@H](Cc2ccccc2)NC(=O)CN(CCC2CCCCC2)C(=O)[C@@H]1CC1CC1 | Emax | 237
COc1ccc2c(c1)C(=O)N[C@H](C(=O)NCCc1ccc3c(c1)OCO3)CC(=O)N(C)[C@@H](CC(C)C)C(=O)N(CCC1CCCCC1)CC(=O)N[C@H](Cc1ccccc1)CO2 | Emax | 191
COc1cccc(CCNC(=O)[C@@H]2CC(=O)N(C)[C@@H](CC3CCCCC3)C(=O)N(CCC3CCCCC3)CC(=O)N[C@H](Cc3ccccc3)COc3ccc4ccccc4c3C(=O)N2)c1 (racemic) | Emax | 202
COc1cccc(CCNC(=O)[C@@H]2CC(=O)N(C)[C@@H](CC(C)C)C(=O)N(CCC3CCCCC3)CC(=O)N[C@H](Cc3ccccc3)COc3ccc(OC)cc3C(=O)N2)c1 | Emax | 175
CC(C)C[C@H]1C(=O)N2CCCC[C@@H]2C(=O)N[C@H](Cc2ccccc2)COc2cnc3ccccc3c2C(=O)N[C@H](C(=O)NCCc2ccns2)CC(=O)N1C | Emax | 256
COc1cccc2c1C(=O)N[C@H](C(=O)NCC[C@H]1COc3ccccc3O1)CC(=O)N(C)[C@@H](CC(C)C)C(=O)N(CCC1CCCCC1)CC(=O)N[C@H](Cc1ccccc1)CO2 (racemic) | Emax | 100
CCOc1cccc(CCNC(=O)[C@@H]2CC(=O)N(C)[C@@H](CC(C)C)C(=O)N(C)CC(=O)N[C@H](Cc3ccccc3)COc3cc4c(cc3C(=O)N2)OCO4)c1 | Emax | 110
CC(C)C[C@H]1C(=O)N2CCCC[C@@H]2C(=O)N[C@H](Cc2ccccc2)COc2cnc3ccccc3c2C(=O)N[C@H](C(=O)NCCc2c(F)cc(F)cc2F)CC(=O)N1C | Emax | 253
COc1nccc2c1C(=O)N[C@H](C(=O)NCCc1nc(C(F)(F)F)no1)CC(=O)N(C)[C@@H](CC(C)C)C(=O)N1CCCC[C@@H]1C(=O)N[C@H](Cc1ccccc1)CO2 | Emax | 237
[2H]C([2H])([2H])Oc1cccc(CCNC(=O)[C@@H]2CC(=O)N(C)[C@@H](CC(C)C)C(=O)N(CCC3CCCCC3)CC(=O)N[C@H](Cc3ccccc3)COc3cccc(OC([2H])([2H])[2H])c3C(=O)N2)c1 | Emax | 239
CC(C)C[C@H]1C(=O)N(CCC(C)(C)C)CC(=O)N[C@H](Cc2ccccc2)COc2cc3c(cc2C(=O)N[C@H](C(=O)NCCc2ccc4c(c2)OCO4)CC(=O)N1C)OCO3 (racemic) | Emax | 105
CC(C)C[C@H]1C(=O)N(CCC2CCCOC2)CC(=O)N[C@H](Cc2ccccc2)COc2ccc3ccccc3c2C(=O)N[C@H](C(=O)NCCc2ccc3c(c2)OCO3)CC(=O)N1C (some centres unmarked) | Emax | 182
C#Cc1cccc(CCNC(=O)[C@@H]2CC(=O)N(C)[C@@H](CC(C)C)C(=O)N3CCCC[C@@H]3C(=O)N[C@H](Cc3ccccc3)COc3ccnc(OC)c3C(=O)N2)c1 | Emax | 270
CC(C)C[C@H]1C(=O)N2CCCC[C@@H]2C(=O)N[C@H](Cc2ccccc2)COc2cnc3ccccc3c2C(=O)N[C@H](C(=O)NCCc2cnn(C)c2)CC(=O)N1C | Emax | 309
CCc1ccc(CCNC(=O)[C@@H]2CC(=O)N(C)[C@@H](CC(C)C)C(=O)N(CCC3CCCCC3)CC(=O)N[C@H](Cc3ccccc3)COc3cccc(OC)c3C(=O)N2)cc1 | Emax | 172
CC(C)C[C@H]1C(=O)N2CCOC[C@@H]2C(=O)N[C@H](Cc2ccccc2)COc2ccc3ccccc3c2C(=O)N[C@H](C(=O)NCCc2noc3ccccc23)CC(=O)N1C | Emax | 191
COc1cc2c(cc1OC)C(=O)N[C@H](C(=O)NCCc1ccc3c(c1)OCO3)CC(=O)N(C)[C@@H](CC1CCCC1)C(=O)N(CCC1CCCCC1)CC(=O)N[C@H](Cc1ccccc1)CO2 (racemic) | Emax | 123
[2H]C1([2H])Oc2ccc3c(c2O1)C(=O)N[C@H](C(=O)NCCc1cccc(OC)c1)CC(=O)N(C)[C@@H](CC(C)C)C(=O)N(C)CC(=O)N[C@H](Cc1ccccc1)CO3 | Emax | 247
CC(C)C[C@H]1C(=O)N2CCOC[C@@H]2C(=O)N[C@H](Cc2ccccc2)COc2cnc3ccccc3c2C(=O)N[C@H](C(=O)NCCc2c(F)cccc2F)CC(=O)N1C | Emax | 331
COc1cccc(CCNC(=O)[C@@H]2CC(=O)N(C)[C@@H](CC(C)C)C(=O)N(CCC3CCCCC3)CC(=O)N[C@H](Cc3ccccc3)COc3cnccc3C(=O)N2)c1 | Emax | 136
